- tested-system: T1, human CD8 alpha (CD8A) on primary human CD8+ T cells (human, UniProt P01732 22-235)
- T1 construct: whole, on cells; also called hCD8A
- T1 sequence (P01732 22-235): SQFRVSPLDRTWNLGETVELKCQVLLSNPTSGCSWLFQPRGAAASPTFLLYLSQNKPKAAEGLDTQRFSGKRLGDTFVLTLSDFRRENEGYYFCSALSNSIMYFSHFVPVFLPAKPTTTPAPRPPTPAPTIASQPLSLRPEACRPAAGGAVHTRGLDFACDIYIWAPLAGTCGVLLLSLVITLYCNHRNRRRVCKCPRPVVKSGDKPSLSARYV
- assay-details: flow cytometry, human CD8+ T cells
- Procedure: Binding of the 190 ELISA hits to human and cynomologous monkey primary CD8 T cells was assessed by flow cytometry. The FN3 domain molecules were diluted to 2 μM and 0.2 μM in PBS and incubated with human or cynomologous monkey CD8+ T cells in 96-well format. […] Cells were gating on live cells and median fluorescence intensity of the bound Centyrins (PE channel) was calculated using Cytobank software.
measurement-name: Human T-cell Binding 0.2 uM (MFI)

| binder | value-unit | Human T-cell Binding 0.2 uM (MFI) |
| --- | --- | --- |
| P283GR7P1367_F5 (designed binder, FN3 domain) LPAPKNLVVSRVTEDSARLSWTAPDAAFDSFDIAYPEWPTDGEAIVLTVPGSERSYDLTGLKPGTEYFVIIYGVKGGALSRPLSAIFTT | MFI | 601 |

[A] P283FR9P1366_A5 (designed binder, FN3 domain) LPAPKNLVVSRVTEDSARLSWTAPDAAFDSFWIAYPEWPTRGEAIVLTVPGSERSYDLTGLKPGTEYFVVIYGVKGGSPSPPLSAIFTT
[B] P283FR9P1366_B7 (designed binder, FN3 domain) LPAPKNLVVSRVTEDSARLSWTAPDAAFDSFWITYPEWPVNGEAIVLTVPGSERSYDLTGLKPGTEYWVVIWGVKGGVESPPLSAIFTT
Query: Choose between A and B : whose measured Human T-cell Binding 0.2 uM (MFI) value is numerically larger? Your answer should be the label of the entry you select.
Reply: A
